Catalogue of MBC readings, one per entry.
System: Staphylococcus epidermidis
Assay: Bactericidal activity against methicillin-resistant Staphylococcus epidermidis isolate 422/10 after 24 hrs
Assay type: functional
Conditions: isolate 422/10, 24 h, read-out: MBC99.9
Observation type: MBC (µg/mL)

| Input smiles | Value prefix | Measurement |
| --- | --- | --- |
| CCCCN(CCCC)C(=O)[C@H](CC)[C@H]1CC[C@H](C)[C@H]([C@@H](C)[C@H](O)[C@H](C)C(=O)[C@H](CC)[C@H]2O[C@]3(C=C[C@@H](O)[C@]4(CC[C@@](C)([C@H]5CC[C@](O)(CC)[C@H](C)O5)O4)O3)[C@H](C)C[C@@H]2C)O1 | = | 256 |
| CC[C@@H](C(=O)[C@@H](C)[C@@H](O)[C@H](C)[C@@H]1O[C@@H]([C@@H](CC)C(=O)N(CCOC)CCOC)CC[C@@H]1C)[C@H]1O[C@]2(C=C[C@@H](O)[C@]3(CC[C@@](C)([C@H]4CC[C@](O)(CC)[C@H](C)O4)O3)O2)[C@H](C)C[C@@H]1C | > | 256 |

###

System: Staphylococcus epidermidis
Assay: Antimicrobial activity against methicillin-resistant Staphylococcus epidermidis isolate 469/11 after 18 hrs by twofold serial broth dilution method
Assay type: functional
Settings: isolate 469/11, 18 h
Catalogue of MIC readings, one per entry.

| Compound | Quantity unit | Value prefix | MIC |
| --- | --- | --- | --- |
| CC[C@@H](C(=O)[C@@H](C)[C@@H](O)[C@H](C)[C@@H]1O[C@@H]([C@@H](CC)C(=O)N2CCOCC2)CC[C@@H]1C)[C@H]1O[C@]2(C=C[C@@H](O)[C@]3(CC[C@@](C)([C@H]4CC[C@](O)(CC)[C@H](C)O4)O3)O2)[C@H](C)C[C@@H]1C | µg/mL | > | 256 |
| CC[C@@H](C(=O)[C@@H](C)[C@@H](O)[C@H](C)[C@@H]1O[C@@H]([C@@H](CC)C(=O)N2CCNCC2)CC[C@@H]1C)[C@H]1O[C@]2(C=C[C@@H](O)[C@]3(CC[C@@](C)([C@H]4CC[C@](O)(CC)[C@H](C)O4)O3)O2)[C@H](C)C[C@@H]1C | µg/mL | = | 128 |
| CC[C@@H](C(=O)[C@@H](C)[C@@H](O)[C@H](C)[C@@H]1O[C@@H]([C@@H](CC)C(=O)N(Cc2ccccc2)Cc2ccccc2)CC[C@@H]1C)[C@H]1O[C@]2(C=C[C@@H](O)[C@]3(CC[C@@](C)([C@H]4CC[C@](O)(CC)[C@H](C)O4)O3)O2)[C@H](C)C[C@@H]1C | µg/mL | = | 32 |
| CCCCN(CCCC)C(=O)[C@H](CC)[C@H]1CC[C@H](C)[C@H]([C@@H](C)[C@H](O)[C@H](C)C(=O)[C@H](CC)[C@H]2O[C@]3(C=C[C@@H](O)[C@]4(CC[C@@](C)([C@H]5CC[C@](O)(CC)[C@H](C)O5)O4)O3)[C@H](C)C[C@@H]2C)O1 | µg/mL | = | 8 |
| CC[C@@H](C(=O)[C@@H](C)[C@@H](O)[C@H](C)[C@@H]1O[C@@H]([C@@H](CC)C(=O)N(CC)CC)CC[C@@H]1C)[C@H]1O[C@]2(C=C[C@@H](O)[C@]3(CC[C@@](C)([C@H]4CC[C@](O)(CC)[C@H](C)O4)O3)O2)[C@H](C)C[C@@H]1C | µg/mL | = | 8 |
| O=C(O)c1cn(C2CC2)c2cc(N3CCNCC3)c(F)cc2c1=O [CIPROFLOXACIN] | µg/mL | = | 8 |
| CC[C@@H](C(=O)[C@@H](C)[C@@H](O)[C@H](C)[C@@H]1O[C@@H]([C@@H](CC)C(=O)N(CCOC)CCOC)CC[C@@H]1C)[C@H]1O[C@]2(C=C[C@@H](O)[C@]3(CC[C@@](C)([C@H]4CC[C@](O)(CC)[C@H](C)O4)O3)O2)[C@H](C)C[C@@H]1C | µg/mL | = | 128 |
| CCCN(CCC)C(=O)[C@H](CC)[C@H]1CC[C@H](C)[C@H]([C@@H](C)[C@H](O)[C@H](C)C(=O)[C@H](CC)[C@H]2O[C@]3(C=C[C@@H](O)[C@]4(CC[C@@](C)([C@H]5CC[C@](O)(CC)[C@H](C)O5)O4)O3)[C@H](C)C[C@@H]2C)O1 | µg/mL | = | 4 |
| CCCCCCCCN(CCCCCCCC)C(=O)[C@H](CC)[C@H]1CC[C@H](C)[C@H]([C@@H](C)[C@H](O)[C@H](C)C(=O)[C@H](CC)[C@H]2O[C@]3(C=C[C@@H](O)[C@]4(CC[C@@](C)([C@H]5CC[C@](O)(CC)[C@H](C)O5)O4)O3)[C@H](C)C[C@@H]2C)O1 | µg/mL | = | 256 |

###

System: Staphylococcus epidermidis
Test: Antimicrobial activity against methicillin-resistant Staphylococcus epidermidis isolate 405/10 after 18 hrs by twofold serial broth dilution method
Type: functional
Settings: isolate 405/10, 18 h
Catalogue of MIC readings, one per entry.

| Input smiles | Value prefix | MIC [µg/mL] |
| --- | --- | --- |
| CCCCCCCCN(CCCCCCCC)C(=O)[C@H](CC)[C@H]1CC[C@H](C)[C@H]([C@@H](C)[C@H](O)[C@H](C)C(=O)[C@H](CC)[C@H]2O[C@]3(C=C[C@@H](O)[C@]4(CC[C@@](C)([C@H]5CC[C@](O)(CC)[C@H](C)O5)O4)O3)[C@H](C)C[C@@H]2C)O1 | > | 256 |
| CC[C@@H](C(=O)[C@@H](C)[C@@H](O)[C@H](C)[C@@H]1O[C@@H]([C@@H](CC)C(=O)N(Cc2ccccc2)Cc2ccccc2)CC[C@@H]1C)[C@H]1O[C@]2(C=C[C@@H](O)[C@]3(CC[C@@](C)([C@H]4CC[C@](O)(CC)[C@H](C)O4)O3)O2)[C@H](C)C[C@@H]1C | = | 8 |
| CC[C@@H](C(=O)[C@@H](C)[C@@H](O)[C@H](C)[C@@H]1O[C@@H]([C@@H](CC)C(=O)N(CCO)CCO)CC[C@@H]1C)[C@H]1O[C@]2(C=C[C@@H](O)[C@]3(CC[C@@](C)([C@H]4CC[C@](O)(CC)[C@H](C)O4)O3)O2)[C@H](C)C[C@@H]1C | = | 2 |
| CC[C@@H](C(=O)[C@@H](C)[C@@H](O)[C@H](C)[C@@H]1O[C@@H]([C@@H](CC)C(=O)N(CC)CC)CC[C@@H]1C)[C@H]1O[C@]2(C=C[C@@H](O)[C@]3(CC[C@@](C)([C@H]4CC[C@](O)(CC)[C@H](C)O4)O3)O2)[C@H](C)C[C@@H]1C | = | 8 |
| CCCCN(CCCC)C(=O)[C@H](CC)[C@H]1CC[C@H](C)[C@H]([C@@H](C)[C@H](O)[C@H](C)C(=O)[C@H](CC)[C@H]2O[C@]3(C=C[C@@H](O)[C@]4(CC[C@@](C)([C@H]5CC[C@](O)(CC)[C@H](C)O5)O4)O3)[C@H](C)C[C@@H]2C)O1 | = | 4 |
| CCCN(CCC)C(=O)[C@H](CC)[C@H]1CC[C@H](C)[C@H]([C@@H](C)[C@H](O)[C@H](C)C(=O)[C@H](CC)[C@H]2O[C@]3(C=C[C@@H](O)[C@]4(CC[C@@](C)([C@H]5CC[C@](O)(CC)[C@H](C)O5)O4)O3)[C@H](C)C[C@@H]2C)O1 | = | 8 |
| CC[C@@H](C(=O)[C@@H](C)[C@@H](O)[C@H](C)[C@@H]1O[C@@H]([C@@H](CC)C(=O)N2CCOCC2)CC[C@@H]1C)[C@H]1O[C@]2(C=C[C@@H](O)[C@]3(CC[C@@](C)([C@H]4CC[C@](O)(CC)[C@H](C)O4)O3)O2)[C@H](C)C[C@@H]1C | = | 256 |

###

System: Staphylococcus epidermidis
Assay: Bactericidal activity against methicillin-resistant Staphylococcus epidermidis isolate 461/11 after 24 hrs
Format: functional
Conditions: isolate 461/11, 24 h, read-out: MBC99.9
Catalogue of MBC readings, one per entry.

| Input smiles | Target desc | Value prefix | MBC, µg/mL |
| --- | --- | --- | --- |
| O=C(O)c1cn(C2CC2)c2cc(N3CCNCC3)c(F)cc2c1=O | Staphylococcus epidermidis | = | 1 |
| CC[C@@H](C(=O)[C@@H](C)[C@@H](O)[C@H](C)[C@@H]1O[C@@H]([C@@H](CC)C(=O)N(Cc2ccccc2)Cc2ccccc2)CC[C@@H]1C)[C@H]1O[C@]2(C=C[C@@H](O)[C@]3(CC[C@@](C)([C@H]4CC[C@](O)(CC)[C@H](C)O4)O3)O2)[C@H](C)C[C@@H]1C | Staphylococcus epidermidis | > | 256 |
| CC[C@@H](C(=O)[C@@H](C)[C@@H](O)[C@H](C)[C@@H]1O[C@@H]([C@@H](CC)C(=O)N(CCO)CCO)CC[C@@H]1C)[C@H]1O[C@]2(C=C[C@@H](O)[C@]3(CC[C@@](C)([C@H]4CC[C@](O)(CC)[C@H](C)O4)O3)O2)[C@H](C)C[C@@H]1C | Staphylococcus epidermidis | = | 128 |
| CCCCN(CCCC)C(=O)[C@H](CC)[C@H]1CC[C@H](C)[C@H]([C@@H](C)[C@H](O)[C@H](C)C(=O)[C@H](CC)[C@H]2O[C@]3(C=C[C@@H](O)[C@]4(CC[C@@](C)([C@H]5CC[C@](O)(CC)[C@H](C)O5)O4)O3)[C@H](C)C[C@@H]2C)O1 | Staphylococcus epidermidis | > | 256 |
